ASSAY SYSTEM: Amyloid-beta precursor protein (Homo sapiens) (UniProt P05067)
Sequence (P05067 whole entry): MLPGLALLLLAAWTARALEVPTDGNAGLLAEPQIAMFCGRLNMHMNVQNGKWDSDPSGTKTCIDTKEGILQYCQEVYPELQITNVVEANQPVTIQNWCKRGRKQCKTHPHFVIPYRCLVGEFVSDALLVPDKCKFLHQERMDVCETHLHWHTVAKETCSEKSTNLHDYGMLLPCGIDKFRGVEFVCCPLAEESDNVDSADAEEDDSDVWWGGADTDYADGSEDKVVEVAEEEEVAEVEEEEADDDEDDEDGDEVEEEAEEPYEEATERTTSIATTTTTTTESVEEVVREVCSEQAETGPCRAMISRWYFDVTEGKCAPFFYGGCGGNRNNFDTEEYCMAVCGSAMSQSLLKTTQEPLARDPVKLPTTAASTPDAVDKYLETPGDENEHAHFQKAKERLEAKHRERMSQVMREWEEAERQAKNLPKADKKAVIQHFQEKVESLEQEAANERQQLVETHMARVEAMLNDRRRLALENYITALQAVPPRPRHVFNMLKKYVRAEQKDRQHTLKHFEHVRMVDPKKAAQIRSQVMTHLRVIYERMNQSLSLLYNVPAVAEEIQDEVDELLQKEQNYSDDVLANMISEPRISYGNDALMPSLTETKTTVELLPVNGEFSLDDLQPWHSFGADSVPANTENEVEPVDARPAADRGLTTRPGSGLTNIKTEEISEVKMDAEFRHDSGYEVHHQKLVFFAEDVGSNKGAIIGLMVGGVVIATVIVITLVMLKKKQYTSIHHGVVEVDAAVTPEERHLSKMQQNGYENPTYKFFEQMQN
MEASUREMENT PROTOCOL: Inhibition of amyloid beta (1 to 42) (unknown origin) self induced aggregation at 25 uM by ThT fluorescence assay relative to control
Everything with inhibition lower than 30% is Not met; everything else, including exactly 30%, is Met.

Answered examples (6):
MOLECULE	ANSWER LABEL
C=CC(C)(C)C1OC(=O)c2c1cc(OC)c(OC)c2OC (stereo not drawn)	Not met
CCCCC1OC(=O)c2c1cc(OC)c(O)c2O (stereo not drawn)	Met
CCCCCC1OC(=O)c2c1cc(OC)c(O)c2OC (stereo not drawn)	Not met
C=CCCCC1OC(=O)c2c1cc(OC)c(OC)c2O (stereo not drawn)	Not met
CCCCCC1OC(=O)c2c1cc(OC)c(OC)c2O (stereo not drawn)	Met
CCCC1OC(=O)c2c1cc(OC)c(OC)c2OC (stereo not drawn)	Not met

Could you please find out whether C=CCC1OC(=O)c2c1cc(OC)c(OC)c2OC (stereo not drawn) has inhibition that meets 30% or exceeds it?
Not met

Could you please find out whether C=CCCCCCC1OC(=O)c2c1cc(OC)c(OC)c2O (stereo not drawn) has inhibition that meets 30% or exceeds it?
Not met

Could you please find out whether CCCCCCC1OC(=O)c2c1cc(OC)c(OC)c2O (stereo not drawn) has inhibition that meets 30% or exceeds it?
Not met

Could you please find out whether C=CC(C)(C)C1OC(=O)c2c1cc(OC)c(OC)c2O (stereo not drawn) has inhibition that meets 30% or exceeds it?
Met

Could you please find out whether CCCCC1OC(=O)c2c1cc(OC)c(OC)c2OC (stereo not drawn) has inhibition that meets 30% or exceeds it?
Not met

Could you please find out whether C=CCCCCCC1OC(=O)c2c1cc(OC)c(OC)c2OC (stereo not drawn) has inhibition that meets 30% or exceeds it?
Not met

Could you please find out whether CCCCC1OC(=O)c2c1cc(OC)c(O)c2OC (stereo not drawn) has inhibition that meets 30% or exceeds it?
Not met

Could you please find out whether C=CCCCCC1OC(=O)c2c1cc(OC)c(OC)c2OC (stereo not drawn) has inhibition that meets 30% or exceeds it?
Not met

###

MEASUREMENT PROTOCOL: Ratio of AUC (0 to t) in Balb/C mouse brain at 30 mg/kg, IG measured upto 8 hrs by LC-MS analysis
Type: ADME, organism-based
EXPERIMENTAL CONTEXT: po
REPORTED PROPERTY: Kp at 8 h
Give the figure only, with no unit attached.

Please indicate Kp at 8 h recorded for CCCCCC1OC(=O)c2c1cc(OC)c(O)c2O (stereo unspecified)
0.8

###

MEASUREMENT PROTOCOL: Half life in Balb/C mouse plasma at 30 mg/kg, IG measured upto 8 hrs by LC-MS analysis
Type: ADME, organism-based
EXPERIMENTAL CONTEXT: po
REPORTED PROPERTY: half-life (min)
Just the number please, in min, no unit attached.

Please indicate half-life recorded for CCCCCC1OC(=O)c2c1cc(OC)c(O)c2O (stereo unspecified)
51

###

MEASUREMENT PROTOCOL: Cmax in Balb/C mouse plasma at 30 mg/kg, IG measured upto 8 hrs by LC-MS analysis
Format: ADME, organism-based
EXPERIMENTAL CONTEXT: po
REPORTED PROPERTY: Cmax (ng/mL)
Just the number please, in ng/mL, no unit attached.

Please indicate Cmax recorded for CCCCCC1OC(=O)c2c1cc(OC)c(O)c2O (stereo unspecified)
879

###

MEASUREMENT PROTOCOL: Tmax in Balb/C mouse plasma at 30 mg/kg, IG measured upto 8 hrs by LC-MS analysis
Format: ADME, organism-based
EXPERIMENTAL CONTEXT: po
REPORTED PROPERTY: Tmax (min)
Just the number please, in min, no unit attached.

Please indicate Tmax recorded for CCCCCC1OC(=O)c2c1cc(OC)c(O)c2O (stereo unspecified)
15

###

MEASUREMENT PROTOCOL: Cmax in Balb/C mouse brain at 30 mg/kg, IG measured upto 8 hrs by LC-MS analysis
Format: ADME, organism-based
EXPERIMENTAL CONTEXT: po
REPORTED PROPERTY: Cmax (ng/mL)
Just the number please, in ng/mL, no unit attached.

Please indicate Cmax recorded for CCCCCC1OC(=O)c2c1cc(OC)c(O)c2O (stereo unspecified)
337

###

MEASUREMENT PROTOCOL: AUC (0 to t) in Balb/C mouse plasma at 30 mg/kg, IG measured upto 8 hrs by LC-MS analysis
Assay type: ADME, organism-based
EXPERIMENTAL CONTEXT: po
REPORTED PROPERTY: AUC(0-t) at 8 h (µg·h/mL)
Just the number please, in µg·h/mL, no unit attached.

Please indicate AUC(0-t) at 8 h recorded for CCCCCC1OC(=O)c2c1cc(OC)c(O)c2O (stereo unspecified)
0.852

###

MEASUREMENT PROTOCOL: Half life in Balb/C mouse brain at 30 mg/kg, IG measured upto 8 hrs by LC-MS analysis
Format: ADME, organism-based
EXPERIMENTAL CONTEXT: po
REPORTED PROPERTY: half-life (min)
Just the number please, in min, no unit attached.

Please indicate half-life recorded for CCCCCC1OC(=O)c2c1cc(OC)c(O)c2O (stereo unspecified)
58.2

###

ASSAY SYSTEM: Amyloid-beta precursor protein (Homo sapiens) (UniProt P05067)
MEASUREMENT PROTOCOL: Inhibition of amyloid beta (1 to 42) (unknown origin) self induced aggregation at 25 uM by ThT fluorescence assay relative to control
Everything with inhibition lower than 30% is false; everything else, including exactly 30%, is true.

Answered examples (3):
COMPOUND	ANSWER LABEL
CCCCCCC1OC(=O)c2c1cc(OC)c(O)c2O (centres undefined)	true
CCCCCC1OC(=O)c2c1cc(OC)c(O)c2O (centres undefined)	true
C=CCC1OC(=O)c2c1cc(OC)c(OC)c2O (centres undefined)	false

Could you please find out whether CCCCCCCC1OC(=O)c2c1cc(OC)c(OC)c2O (centres undefined) has inhibition that meets 30% or exceeds it?
false

Could you please find out whether C=CCCC1OC(=O)c2c1cc(OC)c(OC)c2O (centres undefined) has inhibition that meets 30% or exceeds it?
false

Could you please find out whether C=CCCCC1OC(=O)c2c1cc(OC)c(OC)c2OC (centres undefined) has inhibition that meets 30% or exceeds it?
false

Could you please find out whether CCCC1OC(=O)c2c1cc(OC)c(OC)c2O (centres undefined) has inhibition that meets 30% or exceeds it?
false

Could you please find out whether CCCCCC1OC(=O)c2c1cc(OC)c(OC)c2OC (centres undefined) has inhibition that meets 30% or exceeds it?
false

Could you please find out whether C=CCCC1OC(=O)c2c1cc(OC)c(OC)c2OC (centres undefined) has inhibition that meets 30% or exceeds it?
false

Could you please find out whether C=CCCCCC1OC(=O)c2c1cc(OC)c(OC)c2O (centres undefined) has inhibition that meets 30% or exceeds it?
false

Could you please find out whether CCCCCCCC1OC(=O)c2c1cc(OC)c(OC)c2OC (centres undefined) has inhibition that meets 30% or exceeds it?
false

Could you please find out whether CCCCCCC1OC(=O)c2c1cc(OC)c(OC)c2OC (centres undefined) has inhibition that meets 30% or exceeds it?
false
